Please go through the items and note down their protein stability index.
- Protocol Text: protein stability index of a GFP-peptide fusion (yeast GPS) (PSI 1-4); higher = more stable; sorted into four equal gates, so the index is relative within each strain
- Experimental Setup: ubr1∆

Recorded protein stability index, per entry:
>>> print(df.to_string())
                       residue_string  result
0            WLKNKFAEENITHKLTK [BRR2]    3.01
1           DTLNETNLKMKRKWSYV [RRP43]    2.61
2            EHHSSVKYASPNLNMKY [FAS2]    2.92
3            DRGIANIRNNIESQNLD [SRB4]    3.07
4           VQGKNLLTNFHGMDFTT [RPS1A]    3.23
5    SFGTANTNGTNASANST [YOR098C/NUP1]    2.85
6  TSLLDSLISVLEASLNS [YJL039C/NUP192]    1.58
7           SLAGFHKVQTKLTRELE [RPS7A]    2.04

Your task in this section: give protein stability index for each listed record.
1. KETVEIGIVDYEAGASH [FAS1]
2. FDPSRIKDLKQREDKLK [SMC2]
3. YLKESKRKYDEITHPPS [SWI3]
4. EDPVTVEYLTRYVAGVQ [PRE6]
5. EQEIENNGLPMKNKAET [ITC1]

Data returned:
1. 3.06
2. 2.92
3. 3.05
4. 2.54
5. 2.9
